- testedTarget: T1, Mammalian expressed extracellular human RON protein (Gly25 to Thr957) with His-tag (human, UniProt Q04912 25-957)
- T1 construct: Expressed in ExpiCHO cells, purified on nickel; Position of the His-tag is told inconsistently; Written as one chain; also called RON ECD; RON ECD antigen; not shown: His-tag
- T1 sequence: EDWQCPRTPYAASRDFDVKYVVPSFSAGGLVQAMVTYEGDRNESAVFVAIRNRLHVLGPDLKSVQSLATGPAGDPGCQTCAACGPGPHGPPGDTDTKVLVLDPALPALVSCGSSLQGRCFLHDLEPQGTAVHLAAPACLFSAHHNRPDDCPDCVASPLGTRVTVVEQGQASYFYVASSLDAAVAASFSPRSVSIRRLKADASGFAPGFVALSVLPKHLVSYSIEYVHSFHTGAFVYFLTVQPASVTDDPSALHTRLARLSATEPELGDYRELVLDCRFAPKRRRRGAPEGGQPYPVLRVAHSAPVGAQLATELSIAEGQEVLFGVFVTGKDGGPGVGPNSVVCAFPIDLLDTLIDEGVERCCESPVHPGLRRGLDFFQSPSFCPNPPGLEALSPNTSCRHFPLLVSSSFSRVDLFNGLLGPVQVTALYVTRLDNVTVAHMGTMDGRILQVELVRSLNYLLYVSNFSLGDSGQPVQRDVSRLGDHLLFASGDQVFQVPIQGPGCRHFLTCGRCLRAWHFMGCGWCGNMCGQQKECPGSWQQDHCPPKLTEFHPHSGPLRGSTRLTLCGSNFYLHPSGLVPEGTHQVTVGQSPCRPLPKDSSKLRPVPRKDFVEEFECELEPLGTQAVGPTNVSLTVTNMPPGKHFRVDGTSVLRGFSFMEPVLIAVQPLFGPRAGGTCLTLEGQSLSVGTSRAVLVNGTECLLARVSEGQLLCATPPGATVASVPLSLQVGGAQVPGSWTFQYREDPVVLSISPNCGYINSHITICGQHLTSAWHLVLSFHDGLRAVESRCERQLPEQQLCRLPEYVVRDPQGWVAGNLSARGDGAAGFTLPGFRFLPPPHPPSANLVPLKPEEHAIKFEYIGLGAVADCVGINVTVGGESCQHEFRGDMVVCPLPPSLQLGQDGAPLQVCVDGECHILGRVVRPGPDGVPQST
- experimentSummary: KinExA, RON-HIS

{"binder": "9F2 (antibody, V domains shown, Mouse monoclonal antibody from a hybridoma; kappa light chain; also called Antibody 9F2; anti-RON antibody 9F2) VH: QVKLQQSGPGLVAPSQSLSITCTVSGFSLTSYGVHWVRQPPGKGLEWLGVIWAGGTTNYNSALMSRLSISKDNSKSQVFLKMNSLQTDDTAMYYCASYDYDGYFDVWGAGTTVTVSS VL: DIVLTQTTAIMSASPGEKVTMTCSASSSVSYIHWYQQKSSTSPKLWIYDTSKLASGVPGRFSGSGSGNSYSLTISSMEAEDVATYYCFQGNKYPLTFGAGTKLELK", "koff, s⁻¹": 0.00353}
{"binder": "3G4 (antibody, V domains shown, Mouse monoclonal antibody from a hybridoma (supernatant or purified); kappa light chain; also called Antibody 3G4; anti-RON antibody 3G4) VH: EVQLQESGPELVKPGTSVRISCKASGYTFTSYYMHWVKQRPGQGLEWIGYIYPGNVNTKYNEKFKGKATLTADKSSSTAYMQLSSLTSEDSAVYFCARLGYYRYGGAMDYWGQGTAVTVSS VL: DIVLTQTPAILSVSPGERVSFSCRASQSIGTSIHWYQQRTNGSPRLLIKYASESISGIPSRFSGSGSGTDFTLRINSVESEDLADYYCQQSDSWPTTFGGGTKLEIKR", "koff, s⁻¹": 0.000968}
